Target Or Test System: purified recombinant human b5R (NADH b5 reductase) (Homo sapiens, UniProt P00387)
Sequence (P00387 whole entry): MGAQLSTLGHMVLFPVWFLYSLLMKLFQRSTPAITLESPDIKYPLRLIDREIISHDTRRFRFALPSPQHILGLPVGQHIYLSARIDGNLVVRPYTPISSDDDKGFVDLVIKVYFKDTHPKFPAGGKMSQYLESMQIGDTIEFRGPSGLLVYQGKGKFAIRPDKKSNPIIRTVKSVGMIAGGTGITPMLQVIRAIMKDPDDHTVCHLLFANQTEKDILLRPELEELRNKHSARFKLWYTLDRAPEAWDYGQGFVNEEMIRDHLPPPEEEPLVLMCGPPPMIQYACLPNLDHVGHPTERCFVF
Assay Summary: Inhibition of recombinant b5R activity
Type: biochemical
Readout Kind: pIC50
Notebook: values listed as pIC50 are -log10 of the concentration (mol/L).

Entry O=C(O)CCCCC1CCSS1 (stereo not shown) , system purified recombinant human b5R (NADH b5 reductase) (Homo sapiens, UniProt P00387): what pIC50 was measured?
4.30
